Reference source for all entries: ChEMBL document CHEMBL1201862

For each of the molecules below, state its GI50.
tested on: KM-20L2; test: NCI tumour cell line growth inhibition, 48 h
Active and inactive are the calls of the source. No stated cut-off is given here; in the data, active = GI50 up to about 1.1 µM and inactive = higher.

• Cc1c(C(=O)CC(=O)C(=O)Nc2cccc(C(F)(F)F)c2)[n+]([O-])c2ccccc2[n+]1[O-] = 3.8 µM (inactive)

State recorded GI50 for all listed molecules.
1. CSC(C1c2ccccc2N(C)C2=NC(=O)N(C)C(=O)C21Cl)S(=O)(=O)c1ccc(C)cc1 (stereo not given)
2. C[N+](C)=c1[nH]c2ccccc2[nH]1

1: > 100 µM (inactive); 2: > 100 µM (inactive)

State recorded GI50 for all listed molecules.
1. CN1C(=O)CC2(C)c3cc(C=O)ccc3N(C)C12 (stereo not given)
2. COC1CCC2C(NS(=O)(=O)c3ccc(C)cc3)CCCC2O1.Cc1ccc(S(=O)(=O)NC(C)(C)C=O)cc1 (stereo not given)

> 100 µM (inactive)
32.6 µM (inactive)

* * *

test system: UACC-62; assay: NCI tumour cell line growth inhibition, 48 h
The source made the active and inactive calls. Cut-off read from the data, not from the text of the source: active = GI50 up to about 1.1 µM and inactive = higher.
quantity: GI50

- CCN(CC)CCC(=O)c1ccc(Oc2ccc(F)cc2)cc1: 17.9 µM (inactive)
- C(=N\CCCN1CCN(CCC/N=C/c2cccc3ccccc23)CC1)/c1cccc2ccccc12: 84.7 µM (inactive)
- O=C1CNCCCN2CCN(CCCNCC(=O)Nc3ccc(cc3)S(=O)(=O)c3ccc(cc3)NC(=O)CNCCCN3CCN(CCCNCC(=O)Nc4ccc(cc4)S(=O)(=O)c4ccc(cc4)N1)CC3)CC2: 32.9 µM (inactive)

Give me measured GI50, please, for this compound: CC1C(=O)O[C@H]2C1CC[C@@]1(C)[C@H](O)CC[C@@]13C[C@]2(O)OO3 (some centres undefined)
> 100 µM (inactive)

* * *

system: RXF 393; assay: NCI tumour cell line growth inhibition, 48 h
Where a name gives a salt, the structure may show the parent alone. Active and inactive are the calls of the source. No stated cut-off is given here; in the data, active = GI50 up to about 1.1 µM and inactive = higher.
The reply should name one outcome from Y for active, N for inactive

Example results:
- COC(=O)[C@]1(C)C(OC)=CC(=O)C2C1[C@H]1CCC[C@@H]21 (stereo partly specified): N
- c1ccc(C2=C(c3ccccc3)P(c3ccccc3)C2)cc1 (stereo unspecified): N
- CNc1nncc2[nH]cnc12: N
- NC(=O)Nc1n[nH]c(-c2ccccc2)n1: N
- CC1(C)OC(COP2OCCO2)[C@H](COP2OCCO2)O1 (stereo partly specified): N
- CC(C)=CCNc1ncnc2c1c(C#N)cn2C1OC(CO)C(O)C1O (stereo unspecified): N

How did this test come out for CC(=O)OCC1OC(n2cccnc2=O)C(OC(C)=O)C1OC(C)=O (stereo unspecified) ?
N

How did this test come out for Oc1ccc(C(O)C2CCCCN2)cc1O (stereo unspecified) [RIMITEROL HYDROBROMIDE] ?
N

How did this test come out for O=C1C(Cl)C2(CC(/C=C/c3ccccc3O)=NN2c2cccc(S(=O)(=O)O)c2)N1c1nc2ccccc2s1 (stereo unspecified) ?
N

How did this test come out for OC12c3ccccc3C1(N1CCOCC1)CCCCC21OCCCO1 (stereo unspecified) ?
N

How did this test come out for COC(=O)[C@H](Cc1ccccc1)NP(=O)(OCCC#N)OCC1OC(n2cc(C)c(=O)[nH]c2=O)CC1N=[N+]=[N-] (stereo partly specified) ?
N

How did this test come out for CCOC(=O)c1nnc2c(C(=O)OCC)c3ccccc3n2c1N ?
N

How did this test come out for NC(=S)N/N=C\c1nccc2ccccc12 ?
Y

How did this test come out for CCc1c(CN)c(CC)c(CNC2=NCCN2)c(CC)c1CNC1=NCCN1 ?
N

How did this test come out for CN(C)Cc1cc(C(=O)/C=C/c2ccccc2)cc(CN(C)C)c1O ?
N

How did this test come out for COc1cc(C(=O)C/C(CCC(=O)Nc2ccccc2[N+](=O)[O-])=N\NC(=O)C(N)=O)ccc1O ?
N

How did this test come out for CCOC(=O)C1COc2cc(-c3cc(=O)c4ccccc4o3)ccc2O1 (stereo unspecified) ?
N

How did this test come out for Cc1cc(N(CCC#N)CCC#N)ccc1/C=C(\NC(=O)/C=C/c1ccccc1)C(=O)Nc1ccc(Cl)cc1 ?
N

How did this test come out for CO/N=C1\CC(NC(=O)CNC(=O)OC(C)(C)C)c2ccsc21 (stereo unspecified) ?
N
